- assayed_system: UniProt P36888
- Sequence (P36888 27-993): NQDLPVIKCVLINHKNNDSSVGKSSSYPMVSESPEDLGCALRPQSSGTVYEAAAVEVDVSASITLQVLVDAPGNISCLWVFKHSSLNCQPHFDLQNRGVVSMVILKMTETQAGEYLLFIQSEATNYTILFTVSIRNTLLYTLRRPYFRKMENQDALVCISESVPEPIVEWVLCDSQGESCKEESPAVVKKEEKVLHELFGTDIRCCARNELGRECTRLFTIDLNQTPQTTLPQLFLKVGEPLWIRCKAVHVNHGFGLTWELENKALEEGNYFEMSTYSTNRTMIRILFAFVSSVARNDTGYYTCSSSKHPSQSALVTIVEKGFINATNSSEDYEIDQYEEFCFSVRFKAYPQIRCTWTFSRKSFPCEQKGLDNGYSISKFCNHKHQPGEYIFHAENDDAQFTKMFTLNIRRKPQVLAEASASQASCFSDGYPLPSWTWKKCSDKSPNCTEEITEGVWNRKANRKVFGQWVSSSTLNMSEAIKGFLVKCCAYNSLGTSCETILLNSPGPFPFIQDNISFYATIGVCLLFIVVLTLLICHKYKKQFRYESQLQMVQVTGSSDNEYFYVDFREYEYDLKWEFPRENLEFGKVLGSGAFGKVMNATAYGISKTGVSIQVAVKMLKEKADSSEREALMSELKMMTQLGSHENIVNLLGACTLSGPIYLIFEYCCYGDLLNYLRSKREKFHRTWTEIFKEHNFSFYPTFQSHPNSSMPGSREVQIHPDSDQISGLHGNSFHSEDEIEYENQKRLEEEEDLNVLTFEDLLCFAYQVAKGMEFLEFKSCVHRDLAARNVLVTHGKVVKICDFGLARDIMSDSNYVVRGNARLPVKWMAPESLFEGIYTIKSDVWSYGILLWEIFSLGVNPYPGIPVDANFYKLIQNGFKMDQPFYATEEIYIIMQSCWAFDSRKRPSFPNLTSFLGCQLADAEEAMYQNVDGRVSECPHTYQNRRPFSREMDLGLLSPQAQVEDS

{"molecule": "NCC(N)C(=O)Nc1ccc(-c2nc3ccccc3s2)cc1 (stereo not shown) [MBP-11901]", "Kd / nM": 295}

###

- Test system: Caki-2
- protocol_summary: CCK-8 cell proliferation/cytotoxicity assay
- Format: cell-based
- condition_info: Homo sapiens, CAKI-2, 24 h

{"compound": "NCC(N)C(=O)Nc1ccc(-c2nc3ccccc3s2)cc1 (stereo not shown)", "value_unit": "µM", "IC50": 75.7}

###

- assayed_system: FGFR1 (Homo sapiens, UniProt P11362)
- Sequence (P11362 22-822): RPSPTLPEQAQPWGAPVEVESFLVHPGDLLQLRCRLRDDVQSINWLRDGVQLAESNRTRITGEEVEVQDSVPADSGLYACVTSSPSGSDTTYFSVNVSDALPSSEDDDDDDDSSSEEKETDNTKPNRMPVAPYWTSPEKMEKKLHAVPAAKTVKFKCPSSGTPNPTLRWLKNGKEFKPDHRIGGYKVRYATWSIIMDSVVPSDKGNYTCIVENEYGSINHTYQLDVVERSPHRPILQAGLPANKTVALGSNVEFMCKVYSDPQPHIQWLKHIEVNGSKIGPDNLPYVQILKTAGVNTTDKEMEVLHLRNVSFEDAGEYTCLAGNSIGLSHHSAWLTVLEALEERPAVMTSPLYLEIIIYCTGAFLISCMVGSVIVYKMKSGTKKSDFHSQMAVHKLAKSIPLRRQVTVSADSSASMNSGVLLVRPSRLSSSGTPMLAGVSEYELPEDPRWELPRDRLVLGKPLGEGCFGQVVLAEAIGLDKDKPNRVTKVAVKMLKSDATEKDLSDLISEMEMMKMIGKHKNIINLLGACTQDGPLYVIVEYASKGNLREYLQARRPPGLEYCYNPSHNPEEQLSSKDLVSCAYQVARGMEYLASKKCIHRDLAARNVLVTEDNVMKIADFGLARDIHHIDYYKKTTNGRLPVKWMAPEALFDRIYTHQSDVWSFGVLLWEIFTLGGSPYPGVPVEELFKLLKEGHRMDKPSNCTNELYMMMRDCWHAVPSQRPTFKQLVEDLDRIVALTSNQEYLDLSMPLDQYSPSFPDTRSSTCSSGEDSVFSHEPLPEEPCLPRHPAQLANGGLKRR

{"molecule": "NCC(N)C(=O)Nc1ccc(-c2nc3ccccc3s2)cc1 (stereo not shown)", "assayed_system": "FGFR1 (Homo sapiens, UniProt P11362)", "Kd": "> 30 µM"}

###

- assayed_system: UniProt P00533
- Sequence (P00533 25-1210): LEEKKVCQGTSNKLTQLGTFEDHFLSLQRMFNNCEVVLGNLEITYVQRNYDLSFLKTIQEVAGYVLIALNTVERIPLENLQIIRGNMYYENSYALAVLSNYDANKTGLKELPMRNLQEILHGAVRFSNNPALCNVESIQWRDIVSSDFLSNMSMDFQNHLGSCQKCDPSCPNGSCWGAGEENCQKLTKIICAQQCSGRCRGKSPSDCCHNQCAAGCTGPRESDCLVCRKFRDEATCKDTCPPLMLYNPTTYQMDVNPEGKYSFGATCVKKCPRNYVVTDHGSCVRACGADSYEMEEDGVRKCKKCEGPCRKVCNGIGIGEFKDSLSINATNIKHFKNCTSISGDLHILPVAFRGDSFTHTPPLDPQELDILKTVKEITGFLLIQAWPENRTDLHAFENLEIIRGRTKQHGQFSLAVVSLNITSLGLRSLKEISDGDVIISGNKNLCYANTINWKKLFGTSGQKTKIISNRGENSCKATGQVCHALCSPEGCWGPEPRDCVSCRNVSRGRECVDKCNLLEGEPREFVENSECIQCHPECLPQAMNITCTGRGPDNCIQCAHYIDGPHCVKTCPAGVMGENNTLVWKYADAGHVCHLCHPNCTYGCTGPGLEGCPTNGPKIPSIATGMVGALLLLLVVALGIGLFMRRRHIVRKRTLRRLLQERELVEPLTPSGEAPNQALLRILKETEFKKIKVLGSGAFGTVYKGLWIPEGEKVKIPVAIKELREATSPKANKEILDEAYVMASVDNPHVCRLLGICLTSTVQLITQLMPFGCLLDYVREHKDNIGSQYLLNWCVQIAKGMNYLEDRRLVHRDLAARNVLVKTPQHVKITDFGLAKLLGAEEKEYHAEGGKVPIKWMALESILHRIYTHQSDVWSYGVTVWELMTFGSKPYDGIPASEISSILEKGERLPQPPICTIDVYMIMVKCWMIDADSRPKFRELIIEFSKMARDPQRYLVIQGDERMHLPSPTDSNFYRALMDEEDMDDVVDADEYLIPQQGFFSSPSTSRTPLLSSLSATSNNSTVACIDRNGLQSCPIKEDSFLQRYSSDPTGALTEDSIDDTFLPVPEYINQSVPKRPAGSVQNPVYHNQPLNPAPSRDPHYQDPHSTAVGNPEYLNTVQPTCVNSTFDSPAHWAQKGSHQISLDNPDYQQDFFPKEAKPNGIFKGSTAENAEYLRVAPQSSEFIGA

{"compound": "NCC(N)C(=O)Nc1ccc(-c2nc3ccccc3s2)cc1 (stereo not shown)", "Kd": "> 30 µM"}

meta.source: paper PMC9030223
